Recorded growth inhibition values for a group of compounds are listed next.
# assay.summary: NCI Yeast Anticancer Drug Screen. Data for the mec2-1 strain (AID 157)
# test.parameters: S. cerevisiae mec2-1 strain, at 50.0 µM, hits give high values
Compounds without any hit were thinned out: in the full panel of roughly 79,000, 15% have a hit. Activity calls are given as the source filed them. Rule as the data show it: active = growth inhibition above about 70%; inactive = the rest.
quantity: growth inhibition

| compound | quantity | result |
| --- | --- | --- |
| COc1cc2c(cc1C(C)c1ccc(OC(C)C)cc1)OCO2 (stereo not drawn) | growth inhibition | -9.95% (inactive) |
| Cc1nc2ccccc2nc1CCO | growth inhibition | -0.15% (inactive) |
| Cc1cccc(C(=O)O)c1[N+](=O)[O-] | growth inhibition | 1.05% (inactive) |
